Taken from paper PMC5540273.

tested on: MYO3B; conditions: concentration: 1 μM, replicates: in singlicate; n = 1;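 further: KINOMEscan kinase panel screen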

[
  {
    "compound": "Cl.NS(=O)(=O)c1cccc(Nc2cc(-c3ccc(F)cc3)n[nH]2)c1",
    "%Inh / %": 0
  },
  {
    "compound": "COc1ccc(-c2cc3c(C)nc(N)nc3n([C@H]3CC[C@H](O)CC3)c2=O)cn1",
    "%Inh / %": 0
  },
  {
    "compound": "Cl.c1ccc(Cn2cnc3cc(Nc4ncnc5ccccc45)ccc32)cc1",
    "%Inh / %": 0
  },
  {
    "compound": "COc1cc(Nc2nccc(N3CCC(NC(=O)C4COc5ccccc5O4)C3)n2)cc(OC)c1OC (stereo not drawn)",
    "%Inh / %": 0
  },
  {
    "compound": "CN(C)c1cc(-c2ccc3c(N)n[nH]c3c2)nc(N)n1",
    "%Inh / %": 0
  },
  {
    "compound": "CCC(=O)c1c(-c2ccccc2)c2cc(Cl)ccc2c(=O)n1Cc1cc(S(C)(=O)=O)n(CC(F)F)n1",
    "%Inh / %": 0
  },
  {
    "compound": "Cc1ccccc1COc1cc(-n2cnc3cc(Cl)ccc32)sc1C(N)=O",
    "%Inh / %": 0
  },
  {
    "compound": "COc1cccc(C2=C(N(C)c3ccccc3)C(=O)NC2=O)c1",
    "%Inh / %": 0
  },
  {
    "compound": "O=C(NCc1cccs1)c1cc(C(=O)c2c(Cl)cccc2Cl)c[nH]1",
    "%Inh / %": 18
  }
]

###

test system: DRAK1; construct: gene STK17A; settings: concentration: 1 μM, replicates: in singlicate; n = 1
reported.property: %Inh (%)

[
  {
    "compound": "COc1ccc(-c2cc3c(C)nc(N)nc3n([C@H]3CC[C@H](O)CC3)c2=O)cn1",
    "numeric.result": 0
  },
  {
    "compound": "COc1cccc(-n2cnc3c(N)ncnc32)c1",
    "numeric.result": 37
  },
  {
    "compound": "CC(C)(C)c1ccc(C(=O)Nc2cn3cc(-c4ccccc4)ccc3n2)cc1",
    "numeric.result": 0
  },
  {
    "compound": "Cc1c(Cn2c(C)nn3c(=O)cc(N4CCO[C@H](C)C4)nc23)cccc1C(F)(F)F",
    "numeric.result": 1
  },
  {
    "compound": "Fc1cccc(CSc2nnc(-c3ccc4c(c3)CCO4)o2)c1",
    "numeric.result": 27
  },
  {
    "compound": "CCS(=O)c1ccc(-c2coc3ccc(-c4nnc(C)o4)cc23)cc1 (stereo not drawn)",
    "numeric.result": 0
  },
  {
    "compound": "COc1cc(Nc2ccnc3ccc(C(F)(F)F)cc23)cc(OC)c1OC",
    "numeric.result": 0
  },
  {
    "compound": "COC(=O)c1c(-c2ccccc2)c2cc(Br)ccc2c(=O)n1Cc1ccc(S(C)(=O)=O)cc1",
    "numeric.result": 3
  },
  {
    "compound": "Cc1cc(Nc2nc(-c3cccc(C)n3)nc3ccccc23)ccn1",
    "numeric.result": 0
  },
  {
    "compound": "CCc1nc(-c2cccc(C)c2)c(-c2ccncc2)s1",
    "numeric.result": 0
  },
  {
    "compound": "COc1ccc(-n2cnc3c(N)ncnc32)cc1",
    "numeric.result": 43
  },
  {
    "compound": "Cc1nc(N(C)[C@H]2CN(C(=O)CC#N)CC[C@H]2C)c2cc[nH]c2n1",
    "numeric.result": 0
  }
]
